- Test system: biotinyl-Trp-oxazolone
- test summary: self-aminoacylation, catalytic enhancement (BWO) (fold over background); higher = more active; k-Seq, kA / k0A0; sequences stand for … in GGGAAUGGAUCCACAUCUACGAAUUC…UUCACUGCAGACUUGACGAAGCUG
Fewer inactive variants are shown than the library holds.
quantity name: self-aminoacylation

1. CUACUUCAAAUAAUCGGACUG [Fam1A.1 aminoacylation ribozyme variant] | 2.71
2. AUUACCCUGGUCAGGGAGUGA [Fam2.1 aminoacylation ribozyme variant] | 2.41
3. CUUACCCUGGUCACCGAGUGA [Fam2.1 aminoacylation ribozyme variant] | 8.62
4. AUUACCCUAGUCAUUGAGUGA [Fam2.1 aminoacylation ribozyme variant] | 9.31
5. CCACACUUCGAGCAAUUGGUC [Fam1B.1 aminoacylation ribozyme variant] | 0.375
6. CCACACUCCAAGUAAUCGGUC [Fam1B.1 aminoacylation ribozyme variant] | 1.29
7. AUUCGCCUAGGUCAUGGGGUG [Fam2.2 aminoacylation ribozyme variant] | 5.56
8. AUUCGCCUAGGUCAUCAGGUG [Fam2.2 aminoacylation ribozyme variant] | 2.53
9. CUACUUCCUACAAUCGGUCUG [Fam1A.1 aminoacylation ribozyme variant] | 0.511

---

- Tested on: biotinyl-Trp-oxazolone
- test summary: self-aminoacylation, catalytic enhancement (BWO) (fold over background); higher = more active; k-Seq, kA / k0A0; sequences stand for … in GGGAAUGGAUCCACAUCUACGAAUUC…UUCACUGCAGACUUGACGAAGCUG
This sample holds only a part of the variants without activity.
Classes based on self-aminoacylation: low band = under 2, middle band = from 2 up to 4, high band = 4 and over

1) AUUACCCUCGUCGUCGAGUGA [Fam2.1 aminoacylation ribozyme variant] | middle band
2) AUUCACCUAGGUCAUCGAGGG [Fam2.2 aminoacylation ribozyme variant] | low band
3) CCACCCUUCAAGAAAUCGGUC [Fam1B.1 aminoacylation ribozyme variant] | high band
4) CCACACAUCAAGCAAUCGGCC [Fam1B.1 aminoacylation ribozyme variant] | middle band
5) AAGUUUGUUAAUAGACGCAAG [Fam3.1 aminoacylation ribozyme variant] | low band
6) GUUACCCUGGUCGUCGAGUGA [Fam2.1 aminoacylation ribozyme variant] | middle band
7) AAUCACCAAGGUCAUCGGGUG [Fam2.2 aminoacylation ribozyme variant] | high band
8) CAACCCUUCAAGCAAUCGGUC [Fam1B.1 aminoacylation ribozyme variant] | middle band
9) CCUCACUUCAAGAAAUCGGUC [Fam1B.1 aminoacylation ribozyme variant] | high band
10) CCACUUCAAACAAUGGGUCUG [Fam1A.1 aminoacylation ribozyme variant] | low band
11) AUUCGCCUAGGUCAUCUGGUG [Fam2.2 aminoacylation ribozyme variant] | middle band

---

Listed below: self-aminoacylation values for each entry.
- Tested on: biotinyl-Met-oxazolone
- test summary: self-aminoacylation, catalytic enhancement (BMO) (fold over background); higher = more active; k-Seq, kA / k0A0; sequences stand for … in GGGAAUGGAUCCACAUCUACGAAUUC…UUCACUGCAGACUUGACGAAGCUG
This sample holds only a part of the variants without activity.
quantity name: self-aminoacylation

1. CGACACUUCAAGCAAUCGAUC [Fam1B.1 aminoacylation ribozyme variant] | 0.582
2. AUUAACGUAGGUCAUCGGGUG [Fam2.2 aminoacylation ribozyme variant] | 4.05
3. AUUACCCUGGUCAAGGAGUGA [Fam2.1 aminoacylation ribozyme variant] | 3.47
4. AUUCACCUACGUCAUCGCGUG [Fam2.2 aminoacylation ribozyme variant] | 10.3
5. CCACACUACAAACAAUCGGUC [Fam1B.1 aminoacylation ribozyme variant] | 0.642
6. AAGUUUACUAAUAGUCGCUAG [Fam3.1 aminoacylation ribozyme variant] | 1.29

---

Listed below: self-aminoacylation values for each entry.
- System: biotinyl-Leu-oxazolone
- test summary: self-aminoacylation, catalytic enhancement (BLO) (fold over background); higher = more active; k-Seq, kA / k0A0; sequences stand for … in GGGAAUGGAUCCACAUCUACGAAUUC…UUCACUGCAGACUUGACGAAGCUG
Variants at the floor of the assay were thinned out.
quantity name: self-aminoacylation

1) CUACUUCAAACAUACGGUCUG [Fam1A.1 aminoacylation ribozyme variant] | 0.662
2) AUUGACCUAGUUCAUCGGGUG [Fam2.2 aminoacylation ribozyme variant] | 3.62
3) AUUAACCUAGGUCAUCGCGUG [Fam2.2 aminoacylation ribozyme variant] | 10.2
4) AAUUUUGUUAAUAGUCGCAAG [Fam3.1 aminoacylation ribozyme variant] | 1.93
5) ACUCACCUAGGUCAUCGCGUG [Fam2.2 aminoacylation ribozyme variant] | 10.6
6) AUUACCCUGGUCUACGAGUGA [Fam2.1 aminoacylation ribozyme variant] | 6.37
7) CCACAUCAAACAAUCGGUCUG [Fam1A.1 aminoacylation ribozyme variant] | 1.05
8) CUACUUCACAAAAUCGGUCUG [Fam1A.1 aminoacylation ribozyme variant] | 0.823
9) CCACACUUCAACCAAUCGGCC [Fam1B.1 aminoacylation ribozyme variant] | 1.72
10) CCACACUUCAAGCAAUUGGCC [Fam1B.1 aminoacylation ribozyme variant] | 3.18
11) AUUGACCUAGGUCUUCGGGUG [Fam2.2 aminoacylation ribozyme variant] | 4.19
12) AAGUUUGAUAGUAGUCGCAAG [Fam3.1 aminoacylation ribozyme variant] | 0.977
13) AUUCACCUAGGAAAUCGGGUG [Fam2.2 aminoacylation ribozyme variant] | 8.95

---

- Tested on: biotinyl-Val-oxazolone
- test summary: self-aminoacylation, catalytic enhancement (BVO) (fold over background); higher = more active; k-Seq, kA / k0A0; sequences stand for … in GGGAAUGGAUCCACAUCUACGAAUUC…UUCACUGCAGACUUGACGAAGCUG
Variants at the floor of the assay were thinned out.
quantity name: self-aminoacylation

1) CCACACUUCAAACAAUCGUUC [Fam1B.1 aminoacylation ribozyme variant] | 0.822
2) AUUUCCCAGGUCAUCGAGUGA [Fam2.1 aminoacylation ribozyme variant] | 3.4
3) CCACAUUUCAGGCAAUCGGUC [Fam1B.1 aminoacylation ribozyme variant] | 1.93
4) AUUCACCUAGGUCAUCAGGCG [Fam2.2 aminoacylation ribozyme variant] | 1.32
5) AUUGCCCUGGUCAACGAGUGA [Fam2.1 aminoacylation ribozyme variant] | 3.53
6) AAGUUUGUUAAUAGACGCAAG [Fam3.1 aminoacylation ribozyme variant] | 0.536

---

- Test system: biotinyl-Trp-oxazolone
- test summary: self-aminoacylation, catalytic enhancement (BWO) (fold over background); higher = more active; k-Seq, kA / k0A0; sequences stand for … in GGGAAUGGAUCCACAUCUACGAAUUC…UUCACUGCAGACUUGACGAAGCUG
Fewer inactive variants are shown than the library holds.
Listed below: self-aminoacylation values for each entry.
quantity name: self-aminoacylation

1) CUGCUUCAAACAAUCGGUCUG [Fam1A.1 aminoacylation ribozyme variant] | 53.5
2) AUUCACCUAGGUCAUUGGGCG [Fam2.2 aminoacylation ribozyme variant] | 3.16
3) AUUAACCUGAUCAUCGAGUGA [Fam2.1 aminoacylation ribozyme variant] | 13.7
4) CCACACUUCAAACAAUCCGUC [Fam1B.1 aminoacylation ribozyme variant] | 1.2
5) AAGUUUGCUAAAAGUUGCAAG [Fam3.1 aminoacylation ribozyme variant] | 0.711
6) ACUACCCUGCUCAUCGAGUGA [Fam2.1 aminoacylation ribozyme variant] | 1.93
7) CUUCUUCAAUCAAUCGGUCUG [Fam1A.1 aminoacylation ribozyme variant] | 11.3
8) AAGUUUGCUAAUCGUGGCAAG [Fam3.1 aminoacylation ribozyme variant] | 0.625
9) CUGCUUCAAACAAUCGGUCUC [Fam1A.1 aminoacylation ribozyme variant] | 46
10) AUGCACCUAGGCCAUCGGGUG [Fam2.2 aminoacylation ribozyme variant] | 4.46
11) AUUCAUCUAGGUUAUCGGGUG [Fam2.2 aminoacylation ribozyme variant] | 3.36
12) AUUCACCCAGGUCAUCGGCUG [Fam2.2 aminoacylation ribozyme variant] | 1.41
13) AAGUUUGCUAAUAGUCGCAAU [Fam3.1 aminoacylation ribozyme variant] | 1.22

---

- Tested on: biotinyl-Val-oxazolone
- test summary: self-aminoacylation, catalytic enhancement (BVO) (fold over background); higher = more active; k-Seq, kA / k0A0; sequences stand for … in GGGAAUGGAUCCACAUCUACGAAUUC…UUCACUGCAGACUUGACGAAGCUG
Fewer inactive variants are shown than the library holds.
Listed below: self-aminoacylation values for each entry.
quantity name: self-aminoacylation

1. AUUCACCCAGGUCAUCUGGUG [Fam2.2 aminoacylation ribozyme variant] | 2.25
2. AUCCACCUCGGUCAUCGGGUG [Fam2.2 aminoacylation ribozyme variant] | 7
3. AAGUUUGCUAAUAGUCUGAAG [Fam3.1 aminoacylation ribozyme variant] | 1.07
4. CACUUUGCUAAUAGUCGCAAG [Fam3.1 aminoacylation ribozyme variant] | 1.01
5. AUUACCCUGGUCAUCGAAUUA [Fam2.1 aminoacylation ribozyme variant] | 1.18
6. CCACAGUUCAAGCACUCGGUC [Fam1B.1 aminoacylation ribozyme variant] | 1.62
7. CUACAUCAAAGAAUCGGUCUG [Fam1A.1 aminoacylation ribozyme variant] | 0.68
8. AUUCACCCAGGUCAUCGGCUG [Fam2.2 aminoacylation ribozyme variant] | 2
9. AUUACCCUCGUCAUCGAGUGA [Fam2.1 aminoacylation ribozyme variant] | 2.07
10. AUUCACCUAGGUCAUCAGCUG [Fam2.2 aminoacylation ribozyme variant] | 0.757
11. AUUCAGCUAGGUUAUCGGGUG [Fam2.2 aminoacylation ribozyme variant] | 5.16
12. AUACACCUAGGUCAUCGGGUG [Fam2.2 aminoacylation ribozyme variant] | 2.96
13. AUAACCCUGGUCAUAGAGUGA [Fam2.1 aminoacylation ribozyme variant] | 3.61
14. CUAUUUCAAACAUUCGGUCUG [Fam1A.1 aminoacylation ribozyme variant] | 1.3
15. AAGUUUGCUUAUAGACGCAAG [Fam3.1 aminoacylation ribozyme variant] | 0.585
16. CGACUUCAAACCAUCGGUCUG [Fam1A.1 aminoacylation ribozyme variant] | 1.08
17. ACGUUUGCUAAUAGUCACAAG [Fam3.1 aminoacylation ribozyme variant] | 1.39
18. AAGUGUGCUAAUAUUCGCAAG [Fam3.1 aminoacylation ribozyme variant] | 1.53
19. AUUACCCUAGCCAUCGAGUGA [Fam2.1 aminoacylation ribozyme variant] | 2.13
20. CUUUACCUAGGUCAUCGGGUG [Fam2.2 aminoacylation ribozyme variant] | 3.71
21. ACGUUUACUAAUAGUCGCAAG [Fam3.1 aminoacylation ribozyme variant] | 1.53
22. AAGUAUGCUAGUAGUCGCAAG [Fam3.1 aminoacylation ribozyme variant] | 1.35
23. CUUCACGUAGGUCAUCGGGUG [Fam2.2 aminoacylation ribozyme variant] | 4.16
24. AAGUUUGAUACUAGUCGCAAG [Fam3.1 aminoacylation ribozyme variant] | 1.25
25. CUACUUCAACCAAUCGGUCUC [Fam1A.1 aminoacylation ribozyme variant] | 0.98
26. UUUCACCUAGGUCAUCGGGAG [Fam2.2 aminoacylation ribozyme variant] | 1.35
27. CCACACUUCCAGCAAUCGCUC [Fam1B.1 aminoacylation ribozyme variant] | 1.83
28. AAGUUUGCUAAUAGUCGCAUA [Fam3.1 aminoacylation ribozyme variant] | 1.22
